Hello, the source for this data is PubChem BioAssay (NCI), in case you need it.

Each entry below lists one item and its recorded growth value.
Tested on: NCI-H522 lung
Assay: NCI-60 one-dose screen, 48 h (100 = growth as untreated, 0 = no growth, -100 = all killed)
Details: 10 µM unless noted
Method: Growth inhibition of the NCI-H522 human Non-Small Cell Lung tumor cell line is measured as a screen for anti-cancer activity. Cells are grown in 96 well plates and exposed to the test compound for 48 hours. Compounds are tested at a single concentration, which is 10^-5 M for most compounds. The reported endpoint is percent growth (GI% or GIPRCNT), where numbers from 0 - 100% represent growth inhibition, and numbers from -100% - 0 represent cell death. […]
The panel holds about 83,000 compounds, 20% with a hit somewhere; the sample as a whole holds those more often.
Give your result in % as a bare value.

> print(dat)
                                smilesentry  unitsofmeasure  valuemeasured
1  CCCCCCCCn1ccc2cc(NC(=O)CN3CCN(c4nc(C)cc(Cl)n4)CC3)ccc21               %           81.5
2  O=C(Cn1c(-c2ccc([N+](=O)[O-])cc2)nc2ccccc21)NNC(=O)c1cccnc1               %           54.7

Which measured growth value corresponds to Cc1oc(-c2ccc(Cl)cc2)nc1/C=C/C(=O)c1ccccc1 ?
93.1

Which measured growth value corresponds to CC1(C)c2[nH]c3ccccc3c2C[C@]2(C)[C@H]3CC=C4[C@@H]5C[C@@](C)(C(N)=O)CC[C@]5(C)CC[C@@]4(C)[C@]3(C)CC[C@@H]12 ?
52.5

Which measured growth value corresponds to COP(=O)(OC)C(C)(C)CC(=O)CC(C#N)(C#N)C(C#N)C#N ?
101
